Reference source: patent US20090291908A1

- System: Foscarnet resistant HIVLAI, selection 1 (L214F, R172K)
- Procedure Text: IC50 by MAGI assay on selected resistant virus
- Type: cell-based, HIV-1
- Experimental Parameters: Drug Resistant Virus: Foscarnet (Selection # 1)
Readout Name: Susceptibility Index (IC50 Resistant Virus/IC50 Purent Virus)
Just the number, please.

These solved cases illustrate the format of a correct answer.
>  <Smiles Code>
Cc1ccnc2c1NC(=O)c1cccnc1N2C1CC1

>  <Value Measured>
1.06

$$$$
>  <Smiles Code>
O=C(O)P(O)(O)=S

>  <Value Measured>
6.3

$$$$

Problem: Name the recorded Susceptibility Index (IC50 Resistant Virus/IC50 Purent Virus) for `O=C(O)P(=O)(O)O` .
Solution: 4.1

Problem: Name the recorded Susceptibility Index (IC50 Resistant Virus/IC50 Purent Virus) for `Cc1cn([C@H]2C[C@H](N=[N+]=[N-])[C@@H](CO)O2)c(=O)[nH]c1=O` .
Solution: 0.87
